B1: library; numbered along this chain (parent)
chain: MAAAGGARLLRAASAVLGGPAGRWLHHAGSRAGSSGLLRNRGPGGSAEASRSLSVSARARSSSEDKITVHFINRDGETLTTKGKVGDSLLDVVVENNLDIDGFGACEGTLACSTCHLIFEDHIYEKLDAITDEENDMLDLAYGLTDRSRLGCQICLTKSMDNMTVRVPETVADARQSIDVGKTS

Variants of: B1
Assay Explanation: scaled log2 fold change in cell abundance, elesclomol vs control (0 = silent mean, 1 = nonsense mean) (scaled log2 ratio); higher = higher viability under elesclomol (loss of FDX1 cuproptosis function);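 note: variant abundance is its share of total variant reads in each endpoint sample, from next-generation sequencing of the integrated ORF PCR-amplified out of genomic DNA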
Measurement Parameters: with ABC1 FDX1 KO; elesclomol 5 nM; glucose 10 mM; 14 days
Label criterion met when scaled log2 fold change is at or above 0.1; otherwise label criterion not met.

Study these solved cases before continuing.
{"Mutant Name": "L90N", "Classification": "criterion met"}
{"Mutant Name": "S56T", "Classification": "criterion not met"}

Q: Reported scaled log2 fold change at or above 0.1? V180A
A: criterion not met

Q: Reported scaled log2 fold change at or above 0.1? G102N
A: criterion not met

Q: Reported scaled log2 fold change at or above 0.1? S30F
A: criterion not met

Q: Reported scaled log2 fold change at or above 0.1? G29D
A: criterion met

Q: Reported scaled log2 fold change at or above 0.1? G102Q
A: criterion not met

Q: Reported scaled log2 fold change at or above 0.1? N96E
A: criterion met

Q: Reported scaled log2 fold change at or above 0.1? L90R
A: criterion not met

Q: Reported scaled log2 fold change at or above 0.1? L17A
A: criterion not met

Q: Reported scaled log2 fold change at or above 0.1? L150K
A: criterion met

Q: Reported scaled log2 fold change at or above 0.1? D87H
A: criterion not met

Q: Reported scaled log2 fold change at or above 0.1? S30V
A: criterion met

Q: Reported scaled log2 fold change at or above 0.1? R175A
A: criterion met

Q: Reported scaled log2 fold change at or above 0.1? R74P
A: criterion met

Q: Reported scaled log2 fold change at or above 0.1? R147A
A: criterion met

Q: Reported scaled log2 fold change at or above 0.1? R8Q
A: criterion met

Q: Reported scaled log2 fold change at or above 0.1? R41H
A: criterion met

Q: Reported scaled log2 fold change at or above 0.1? N73D
A: criterion met

Q: Reported scaled log2 fold change at or above 0.1? A12V
A: criterion met

Q: Reported scaled log2 fold change at or above 0.1? A4G
A: criterion not met
